Molecular target: T1, recombinant human VEGF165 (human, UniProt P15692 207-395)
T1 construct: also called hVEGF165
T1 sequence (P15692 other isoform, or with tags, fused parts or gaps limits assumed): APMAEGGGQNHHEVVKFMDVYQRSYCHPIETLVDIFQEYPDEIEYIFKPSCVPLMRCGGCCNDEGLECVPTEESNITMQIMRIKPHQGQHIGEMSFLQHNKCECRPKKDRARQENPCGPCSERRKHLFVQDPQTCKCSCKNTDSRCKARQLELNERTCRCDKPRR
Assay: SPR (Biacore), antibody captured by anti-human Fc, hVEGF165 in solution
METRIC NAME: kon
Respond with a number, then the unit of measure.

Entry CL-34522-IgG (antibody, V domains shown, also called h4G8 CL-34522) VH: EVQLVQSGSELKKPGASVKVSCKASGYTFENYGMYWVRQAPGQGLEWMGWIDTETGEPTYADDFKGRFVFSLDTSVSTAYLQISSLKAEDTAVYYCARTNYYYSSYMFYFDYWGQGTMVTVSS VL: EIVLTQSPATLSLSPGERATLSCRASQSVGTHMHWYQQKPGQAPRLLIYGASKLESGVPARFSGSGSGTDFTLTISSLEPEDFAVYYCQQSWYDPLTFGQGTKLEIK , kon reported as 2e+07 M⁻¹ s⁻¹

Entry CL-28815-IgG (EI version of parent mAb) (antibody, V domains shown, IgG format) VH: EVQLVQSGSELKKPGASVKVSCKASGYTFTNYGMYWVRQAPGQGLEWMGWINTETGKPTYADDFKGRFVFSLDTSVSTAYLQISSLKAEDTAVYYCARTNYYYRSYIFYFDYWGQGTMVTVSS VL: EIVLTQSPATLSLSPGERATLSCRASESVSTHMHWYQQKPGQAPRLLIYGASNLESGVPARFSGSGSGTDFTLTISSLEPEDFAVYFCQQSWNDPFTFGQGTKLEIK , kon reported as 9.2e+06 M⁻¹ s⁻¹

Entry CL-34633-IgG (antibody, V domains shown, also called h4G8 CL-34633) VH: EVQLVQSGSELKKPGASVKVSCKASGYTFSDYGMYWVRQAPGQGLEWMGWIDTETGEPTYADDFKGRFVFSLDTSVSTAYLQISSLKAEDTAVYYCARTNYYYRSYMFYFDYWGQGTMVTVSS VL: EIVLTQSPATLSLSPGERATLSCRASQSVSTHMHWYQQKPGQAPRLLIYGASNLESGVPARFSGSGSGTDFTLTISSLEPEDFAVYFCQQSWYDPLTFGQGTKLEIK , kon reported as 1.7e+07 M⁻¹ s⁻¹

Entry CL-34449-IgG (antibody, V domains shown, also called h4G8 CL-34449) VH: EVQLVQSGSELKKPGASVKVSCKASGYTFTDYGMYWVRQAPGQGLEWMGWIDTETGEPTYADDFKGRFVFSLDTSVSTAYLQISSLKAEDTAVYYCARTNYYYRSYMFYFDYWGQGTMVTVSS VL: EIVLTQSPATLSLSPGERATLSCRASQSVGTHMHWYQQKPGQAPRLLIYGASHLESGIPARFSGSGSGTDFTLTISSLEPEDFAVYYCQQTWYDPLTFGQGTKLEIK , kon reported as 1.1e+07 M⁻¹ s⁻¹

Entry CL-32416-IgG (antibody, V domains shown, also called h4G8 CL-32416) VH: EVQLVQSGSELKKPGASVKVSCKASGYTFTDYGMYWVRQAPGQGLEWMGWIDTETGEPTYADDFKGRFVFSLDTSVSTAYLQISSLKAEDTAVYYCARTNYYYRSYMFYFDYWGQGTMVTVSS VL: EIVLTQSPATLSLSPGERATLSCRASESVSTHMHWYQQKPGQAPRLLIYGASNLESGVPARFSGSGSGTDFTLTISSLEPEDFAVYFCQQSWNDPFTFGQGTKLEIK , kon reported as 2e+07 M⁻¹ s⁻¹

Entry CL-34455-IgG (antibody, V domains shown, also called h4G8 CL-34455) VH: EVQLVQSGSELKKPGASVKVSCKASGYTFTNYGMYWVRQAPGQGLEWMGWIDTETGEPTYAQGFTGRFVFSLDTSVSTAYLQISSLKAEDTAVYYCARTNYYYPSYMFYFDYWGQGTMVTVSS VL: EIVLTQSPATLSLSPGERATLSCRASQSVGTHMHWYQQKPGQAPRLLIYGASKLESGVPARFSGSGSGTDFTLTISSLEPEDFAVYYCQQSWYDPLTFGQGTKLEIK , kon reported as 2.2e+07 M⁻¹ s⁻¹

Entry CL-34475-IgG (antibody, V domains shown, also called h4G8 CL-34475) VH: EVQLVQSGSELKKPGASVKVSCKASGYTFTDYGMYWVRQAPGQGLEWMGWIDTETGEPTYADDFKGRFVFSLDTSVSTAYLQISSLKAEDTAVYYCARTNYYYSSYMFYFDYWGQGTMVTVSS VL: EIVLTQSPATLSLSPGERATLSCRASQSVSTHMHWYQQKPGQAPRLLIYGASNLESGIPARFSGSGSGTDFTLTISSLEPEDFAVYYCQQSWYDPLTFGQGTKLEIK , kon reported as 2.7e+07 M⁻¹ s⁻¹

Entry CL-34469-IgG (antibody, V domains shown, also called h4G8 CL-34469) VH: EVQLVQSGSELKKPGASVKVSCKASGYTFTNYGMYWVRQAPGQGLEWMGWIDTETGEPTYADDFKGRFVFSLDTSVSTAYLQISSLKAEDTAVYYCARTNYYYRSYMFYFDYWGQGTMVTVSS VL: EIVLTQSPATLSLSPGERATLSCRASQSVSTHMHWYQQKPGQAPRLLIYGASNLESGVPARFSGSGSGTDFTLTISSLEPEDFAVYYCQQSWYDPLTFGQGTKLEIK , kon reported as 1.5e+07 M⁻¹ s⁻¹

Entry CL-34540-IgG (antibody, V domains shown, also called h4G8 CL-34540) VH: EVQLVQSGSELKKPGASVKVSCKASGYTFTDYGMYWVRQAPGQGLEWMGWIDTETGQPTYADDFKGRFVFSLDTSVSTAYLQISSLKAEDTAVYYCARTNYYYRSYMFYFDYWGQGTMVTVSS VL: EIVLTQSPATLSLSPGERATLSCRASESVGKHMHWYQQKPGQAPRLLIYAASNLESGVPARFSGSGSGTDFTLTISSLEPEDFAVYYCQQSWYDPLTFGQGTKLEIK , kon reported as 8.4e+06 M⁻¹ s⁻¹
